Provide the recorded % inhibition NE for the entries that follow.
Tested on: norepinephrine (NE) uptake, rat whole brain synaptosomes
ASSAY_DETAILS: Inhibition of [^3 H]-Norepinephrine Uptake in Rat Whole Brain or Hypothalamic Synaptosomes
Type: biochemical
EXPERIMENTAL_PARAMETERS: at 3.16 μmn
Write the value in % as a bare number.

Lookup: Requested field: % inhibition NE. Item: O=C(O)/C=C\C(=O)O.O=C1c2ccccc2C(=O)N1CCCN1CCC(N2C(c3ccc(Cl)cc3)c3ccccc3S2(=O)=O)CC1 (stereo not shown)
Found: 28.37

Lookup: Requested field: % inhibition NE. Item: COc1cc(C(C)=O)ccc1OCCCN1CCC(N2C(c3ccc(Cl)cc3)c3ccccc3S2(=O)=O)CC1 (stereo not shown)
Found: 55.23

Lookup: Requested field: % inhibition NE. Item: O=C(O)/C=C\C(=O)O.O=S1(=O)c2ccccc2C(c2ccc(Cl)cc2)N1C1CCN(CCO)CC1 (stereo not shown)
Found: 8.71

Lookup: Requested field: % inhibition NE. Item: Cl.O=S1(=O)c2ccccc2C(c2ccc(F)cc2)N1C1CCNCC1 (stereo not shown)
Found: 25.02
